- Tested on: COLO 205 colon
- testSummary: NCI-60 one-dose screen, 48 h (100 = growth as untreated, 0 = no growth, -100 = all killed)
- assaySetup: 10 µM unless noted
The panel holds about 83,000 compounds, 20% with a hit somewhere; the sample as a whole holds those more often.
For each record, write down the corresponding growth.
Respond with the bare value in %.

Entry CN(C)c1ccc(/C=N\Nc2cc(=O)[nH]c3ccc(Cl)cc23)cc1 has what growth?
112

Entry CCCSc1nc2ccc(C)cc2cc1/C=[N+](\[O-])c1ccccc1 has what growth?
101

Entry c1ccc(Nc2cc(-c3cccnc3)[nH]n2)cc1 has what growth?
106

Entry C(=N/Nc1ncnc2nc[nH]c12)/c1ccccn1 has what growth?
26.1

Entry NCCCNc1nc2ccccc2c2c(=O)c3cc(F)cc(F)c3sc12 has what growth?
63.6

Entry Cc1ccc(/C=C2\Oc3ccc(O)c(O)c3C2=O)cc1 has what growth?
107
